Just for reference, BigSolDB 2.1 is where these values come from.

- measurement_setup: in ethanol, 313.15 K
measured_attribute: solubility (mole fraction)

Answer with the recorded solubility (mole fraction) for the molecule listed here: O=C(O)c1cc(=O)[nH]c(=O)[nH]1
3.48e-05

* * *

- measurement_setup: in ethyl acetate, 283.15 K
measured_attribute: solubility (mole fraction)

Answer with the recorded solubility (mole fraction) for the compound listed here: O=C(O)c1cc(=O)[nH]c(=O)[nH]1
1.2e-06

* * *

- measurement_setup: in water, 313.15 K
measured_attribute: solubility (mole fraction)
Answers are plain numbers.

Answer with the recorded solubility (mole fraction) for the molecule listed here: O=C(O)c1cc(=O)[nH]c(=O)[nH]1
0.000107

* * *

- measurement_setup: in acetone, 308.15 K
measured_attribute: solubility (mole fraction)
One number for each entry.

Answer with the recorded solubility (mole fraction) for the molecule listed here: O=C(O)c1cc(=O)[nH]c(=O)[nH]1
1.95e-05

* * *

- measurement_setup: in methanol, 283.15 K
measured_attribute: solubility (mole fraction)
Give bare numbers.

Answer with the recorded solubility (mole fraction) for the compound listed here: O=C(O)c1cc(=O)[nH]c(=O)[nH]1
5.24e-05

* * *

- measurement_setup: in DMF, 283.15 K
measured_attribute: solubility (mole fraction)
Give bare numbers.

Answer with the recorded solubility (mole fraction) for the molecule listed here: O=C(O)c1cc(=O)[nH]c(=O)[nH]1
0.00305

* * *

- measurement_setup: in DMSO, 323.15 K
measured_attribute: solubility (mole fraction)
Answers are plain numbers.

Answer with the recorded solubility (mole fraction) for the compound listed here: O=C(O)c1cc(=O)[nH]c(=O)[nH]1
0.0911

* * *

- measurement_setup: in n-propanol, 278.15 K
measured_attribute: solubility (mole fraction)
Give bare numbers.

Answer with the recorded solubility (mole fraction) for the molecule listed here: O=C(O)c1cc(=O)[nH]c(=O)[nH]1
2.24e-05

* * *

- measurement_setup: in methyl acetate, 298.15 K
measured_attribute: solubility (mole fraction)
Answers are plain numbers.

Answer with the recorded solubility (mole fraction) for the compound listed here: O=C(O)c1cc(=O)[nH]c(=O)[nH]1
1.21e-05

* * *

- measurement_setup: in water, 283.15 K
measured_attribute: solubility (mole fraction)
Answers are plain numbers.

Answer with the recorded solubility (mole fraction) for the compound listed here: O=C(O)c1cc(=O)[nH]c(=O)[nH]1
5.22e-05

* * *

- measurement_setup: in THF, 318.15 K
measured_attribute: solubility (mole fraction)
Give bare numbers.

Answer with the recorded solubility (mole fraction) for the molecule listed here: O=C(O)c1cc(=O)[nH]c(=O)[nH]1
0.000167

* * *

- measurement_setup: in n-butanol, 288.15 K
measured_attribute: solubility (mole fraction)
Answers are plain numbers.

Answer with the recorded solubility (mole fraction) for the compound listed here: O=C(O)c1cc(=O)[nH]c(=O)[nH]1
2.12e-05

* * *

- measurement_setup: in isopropanol, 278.15 K
measured_attribute: solubility (mole fraction)
Numbers only.

Answer with the recorded solubility (mole fraction) for the molecule listed here: O=C(O)c1cc(=O)[nH]c(=O)[nH]1
1e-05

* * *

- measurement_setup: in methanol, 303.15 K
measured_attribute: solubility (mole fraction)
Give bare numbers.

Answer with the recorded solubility (mole fraction) for the molecule listed here: O=C(O)c1cc(=O)[nH]c(=O)[nH]1
9.82e-05

* * *

- measurement_setup: in acetone, 298.15 K
measured_attribute: solubility (mole fraction)
One number for each entry.

Answer with the recorded solubility (mole fraction) for the compound listed here: O=C(O)c1cc(=O)[nH]c(=O)[nH]1
1.56e-05

* * *

- measurement_setup: in THF, 278.15 K
measured_attribute: solubility (mole fraction)
Answers are plain numbers.

Answer with the recorded solubility (mole fraction) for the compound listed here: O=C(O)c1cc(=O)[nH]c(=O)[nH]1
7.26e-05

* * *

- measurement_setup: in DMF, 308.15 K
measured_attribute: solubility (mole fraction)
Answers are plain numbers.

Answer with the recorded solubility (mole fraction) for the compound listed here: O=C(O)c1cc(=O)[nH]c(=O)[nH]1
0.00861

* * *

- measurement_setup: in methanol, 278.15 K
measured_attribute: solubility (mole fraction)
Give bare numbers.

Answer with the recorded solubility (mole fraction) for the molecule listed here: O=C(O)c1cc(=O)[nH]c(=O)[nH]1
4.44e-05

* * *

- measurement_setup: in ethyl acetate, 278.15 K
measured_attribute: solubility (mole fraction)
Answers are plain numbers.

Answer with the recorded solubility (mole fraction) for the compound listed here: O=C(O)c1cc(=O)[nH]c(=O)[nH]1
1.1e-06

* * *

- measurement_setup: in isopropanol, 283.15 K
measured_attribute: solubility (mole fraction)
One number for each entry.

Answer with the recorded solubility (mole fraction) for the molecule listed here: O=C(O)c1cc(=O)[nH]c(=O)[nH]1
1.32e-05

* * *

- measurement_setup: in methyl acetate, 313.15 K
measured_attribute: solubility (mole fraction)
Numbers only.

Answer with the recorded solubility (mole fraction) for the compound listed here: O=C(O)c1cc(=O)[nH]c(=O)[nH]1
1.53e-05

* * *

- measurement_setup: in THF, 323.15 K
measured_attribute: solubility (mole fraction)
One number for each entry.

Answer with the recorded solubility (mole fraction) for the compound listed here: O=C(O)c1cc(=O)[nH]c(=O)[nH]1
0.000185

* * *

- measurement_setup: in ethanol, 308.15 K
measured_attribute: solubility (mole fraction)
One number for each entry.

Answer with the recorded solubility (mole fraction) for the compound listed here: O=C(O)c1cc(=O)[nH]c(=O)[nH]1
3.17e-05

* * *

- measurement_setup: in n-butanol, 278.15 K
measured_attribute: solubility (mole fraction)
Give bare numbers.

Answer with the recorded solubility (mole fraction) for the compound listed here: O=C(O)c1cc(=O)[nH]c(=O)[nH]1
1.47e-05

* * *

- measurement_setup: in DMF, 323.15 K
measured_attribute: solubility (mole fraction)
One number for each entry.

Answer with the recorded solubility (mole fraction) for the molecule listed here: O=C(O)c1cc(=O)[nH]c(=O)[nH]1
0.0157

* * *

- measurement_setup: in THF, 313.15 K
measured_attribute: solubility (mole fraction)
One number for each entry.

Answer with the recorded solubility (mole fraction) for the molecule listed here: O=C(O)c1cc(=O)[nH]c(=O)[nH]1
0.000151

* * *

- measurement_setup: in DMSO, 308.15 K
measured_attribute: solubility (mole fraction)

Answer with the recorded solubility (mole fraction) for the molecule listed here: O=C(O)c1cc(=O)[nH]c(=O)[nH]1
0.0563

* * *

- measurement_setup: in isopropanol, 323.15 K
measured_attribute: solubility (mole fraction)
Numbers only.

Answer with the recorded solubility (mole fraction) for the molecule listed here: O=C(O)c1cc(=O)[nH]c(=O)[nH]1
7.71e-05

* * *

- measurement_setup: in DMF, 318.15 K
measured_attribute: solubility (mole fraction)
Give bare numbers.

Answer with the recorded solubility (mole fraction) for the compound listed here: O=C(O)c1cc(=O)[nH]c(=O)[nH]1
0.0132

* * *

- measurement_setup: in isopropanol, 318.15 K
measured_attribute: solubility (mole fraction)
Answers are plain numbers.

Answer with the recorded solubility (mole fraction) for the compound listed here: O=C(O)c1cc(=O)[nH]c(=O)[nH]1
6.37e-05

* * *

- measurement_setup: in ethyl acetate, 318.15 K
measured_attribute: solubility (mole fraction)
Numbers only.

Answer with the recorded solubility (mole fraction) for the compound listed here: O=C(O)c1cc(=O)[nH]c(=O)[nH]1
1.9e-06

* * *

- measurement_setup: in methanol, 318.15 K
measured_attribute: solubility (mole fraction)
Answers are plain numbers.

Answer with the recorded solubility (mole fraction) for the compound listed here: O=C(O)c1cc(=O)[nH]c(=O)[nH]1
0.000157

* * *

- measurement_setup: in DMSO, 298.15 K
measured_attribute: solubility (mole fraction)
Numbers only.

Answer with the recorded solubility (mole fraction) for the compound listed here: O=C(O)c1cc(=O)[nH]c(=O)[nH]1
0.0394

* * *

- measurement_setup: in methyl acetate, 308.15 K
measured_attribute: solubility (mole fraction)
Answers are plain numbers.

Answer with the recorded solubility (mole fraction) for the compound listed here: O=C(O)c1cc(=O)[nH]c(=O)[nH]1
1.41e-05

* * *

- measurement_setup: in methyl acetate, 318.15 K
measured_attribute: solubility (mole fraction)
Numbers only.

Answer with the recorded solubility (mole fraction) for the molecule listed here: O=C(O)c1cc(=O)[nH]c(=O)[nH]1
1.64e-05

* * *

- measurement_setup: in ethyl acetate, 323.15 K
measured_attribute: solubility (mole fraction)
One number for each entry.

Answer with the recorded solubility (mole fraction) for the compound listed here: O=C(O)c1cc(=O)[nH]c(=O)[nH]1
2e-06

* * *

- measurement_setup: in n-butanol, 308.15 K
measured_attribute: solubility (mole fraction)
Answers are plain numbers.

Answer with the recorded solubility (mole fraction) for the compound listed here: O=C(O)c1cc(=O)[nH]c(=O)[nH]1
4.06e-05

* * *

- measurement_setup: in n-butanol, 298.15 K
measured_attribute: solubility (mole fraction)
One number for each entry.

Answer with the recorded solubility (mole fraction) for the compound listed here: O=C(O)c1cc(=O)[nH]c(=O)[nH]1
2.97e-05

* * *

- measurement_setup: in THF, 308.15 K
measured_attribute: solubility (mole fraction)
Give bare numbers.

Answer with the recorded solubility (mole fraction) for the compound listed here: O=C(O)c1cc(=O)[nH]c(=O)[nH]1
0.000138
